# test system: von Willebrand factor (VWF) (Homo sapiens, UniProt P04275 P04275:764-2813)
# protocol text: filter; Bmax 38%; 2 mM CaCl2, 37 C
# assay context: tags: factor VIII free, Haematologic Technologies Inc; label: 5'-32P
assay endpoint: Kd
Please append the unit to your numeric answer.

Which Kd is reported for this binder? ACGAACUGCCCUCAGCUACUUUCAUGUUGCUGACGCACAGACGU (ssRNA, mAfCmGrArAfCfUrGfCfCfCfUfCrArGfCfUrAfCfUfUfUfCrAfUrGfUfUrGfCfUrGrAfCrGfCrAfCrArGrAfCmGfU-idT (m=2'-OMe, f=2'-F, r=2'-OH)) [T25 vrt3]
9.2 nM

The measurements presented in this section are drawn from patent US20190218553.
